# SUBJECT OF TEST: UniProt:Q8IXJ6
# ASSAY: Inhibition of GST-tagged human recombinant SIRT2 (34 to 356 residues) expressed in Escherichia coli BL21 at 50 uM using Fluor de Lys-SIRT as substrate incubated for 60 mins prior to substrate addition measured after 45 mins by fluorimetric analysis
VALUE TYPE: inhibition (%)
Please give a number only; it is taken to be in %.

# COMPOUND STRUCTURE STRING, inhibition / %
rows = [
    ("Nc1ccccc1NC(=O)c1cccc(-c2ccc3ccccc3c2)c1", 29),
]

IN: Enter reported inhibition observed with UniProt:Q8IXJ6 for O=C(Nc1cccc(NC(=O)c2ccccc2)c1)c1ccccc1
OUT: 10

IN: Enter reported inhibition observed with UniProt:Q8IXJ6 for COc1ccccc1C(=O)Nc1cccc(NC(=O)c2cccc(Br)c2)c1
OUT: 39

IN: Enter reported inhibition observed with UniProt:Q8IXJ6 for O=C(Nc1ccccc1)c1cccc(-c2ccc3ccccc3c2)c1
OUT: 14

IN: Enter reported inhibition observed with UniProt:Q8IXJ6 for COc1cccc(C(=O)Nc2cccc(-c3ccc4ccccc4c3)c2)c1
OUT: 44

IN: Enter reported inhibition observed with UniProt:Q8IXJ6 for O=C(Nc1cccc(NC(=O)c2ccccc2Br)c1)c1cccc(Br)c1
OUT: 19

###

# SUBJECT OF TEST: NAD-dependent protein deacetylase sirtuin-2 (Homo sapiens) (UniProt Q8IXJ6)
# ASSAY: Inhibition of GST-tagged human recombinant SIRT2 (34 to 356 residues) expressed in Escherichia coli BL21 at 50 uM using Fluor de Lys-SIRT as substrate incubated for 60 mins prior to substrate addition measured after 45 mins by fluorimetric analysis
VALUE TYPE: inhibition (%)
Please give a number only; it is taken to be in %.

# COMPOUND STRUCTURE STRING, U, REPORTED
data = [
    ("COc1ccccc1C(=O)Nc1cccc(-c2ccc3ccccc3c2)c1", "%", 47),
    ("O=C(Nc1cccc(Br)c1)c1cccc(-c2ccc3ccccc3c2)c1", "%", 46),
    ("O=C(Nc1ccccc1Br)c1cccc(-c2ccc3ccccc3c2)c1", "%", 95),
]

IN: Give the measured inhibition of O=C(Nc1cccc(-c2ccc3ccccc3c2)c1)c1cccc(Br)c1 .
OUT: 43

IN: Give the measured inhibition of O=C(Nc1ccccc1[N+](=O)[O-])c1cccc(-c2ccc3ccccc3c2)c1 .
OUT: 76

IN: Give the measured inhibition of O=C(Nc1cccc(NC(=O)c2cccc(Br)c2)c1)c1cc(Cl)cc(Cl)c1 .
OUT: 10

IN: Give the measured inhibition of COc1ccc(C(=O)Nc2cccc(NC(=O)c3ccccc3Br)c2)cc1 .
OUT: 31

IN: Give the measured inhibition of COc1ccccc1NC(=O)c1cccc(-c2ccc3ccccc3c2)c1 .
OUT: 89

###

inhibition reference
# SUBJECT OF TEST: NAD-dependent protein deacetylase sirtuin-2 (Homo sapiens)
# ASSAY: Inhibition of GST-tagged human recombinant SIRT2 (34 to 356 residues) expressed in Escherichia coli BL21 at 10 uM using Fluor de Lys-SIRT as substrate incubated for 60 mins prior to substrate addition measured after 45 mins by fluorimetric analysis
Please give a number only; it is taken to be in %.

Recorded results for 3 compounds are shown here.
# COMPOUND STRUCTURE STRING, VALUE TYPE, REPORTED
records = [
    ("COc1cccc(NC(=O)c2cccc(-c3ccc4ccccc4c3)c2)c1", "inhibition", 29),
    ("O=C(Nc1cccc(NC(=O)c2cccc(Br)c2)c1)c1cc(Cl)cc(Cl)c1", "inhibition", 0),
    ("Cc1ccccc1C(=O)Nc1cccc(NC(=O)c2ccccc2Br)c1", "inhibition", 1),
]

IN: Give the measured inhibition of COc1ccccc1C(=O)Nc1cccc(-c2ccc3ccccc3c2)c1 .
OUT: 10

IN: Give the measured inhibition of COc1cccc(C(=O)Nc2cccc(-c3ccc4ccccc4c3)c2)c1 .
OUT: 8

IN: Give the measured inhibition of O=C(Nc1cccc(NC(=O)c2ccccc2Br)c1)c1ccccc1Br .
OUT: 3

IN: Give the measured inhibition of COc1cccc(C(=O)Nc2cccc(NC(=O)c3ccccc3Br)c2)c1 .
OUT: 4

IN: Give the measured inhibition of O=C(Nc1cccc(NC(=O)c2ccccc2)c1)c1ccccc1 .
OUT: 3

IN: Give the measured inhibition of O=C(Nc1cccc(NC(=O)c2cccc(Br)c2)c1)c1cccc(Br)c1 .
OUT: 7

IN: Give the measured inhibition of O=C(Nc1cccc(-c2ccc3ccccc3c2)c1)c1cccc(Br)c1 .
OUT: 19

IN: Give the measured inhibition of O=C(Nc1cccc(Br)c1)c1cccc(-c2ccc3ccccc3c2)c1 .
OUT: 23

###

# SUBJECT OF TEST: NAD-dependent protein deacetylase sirtuin-3, mitochondrial (Homo sapiens)
# Sequence (Q9NTG7 whole entry): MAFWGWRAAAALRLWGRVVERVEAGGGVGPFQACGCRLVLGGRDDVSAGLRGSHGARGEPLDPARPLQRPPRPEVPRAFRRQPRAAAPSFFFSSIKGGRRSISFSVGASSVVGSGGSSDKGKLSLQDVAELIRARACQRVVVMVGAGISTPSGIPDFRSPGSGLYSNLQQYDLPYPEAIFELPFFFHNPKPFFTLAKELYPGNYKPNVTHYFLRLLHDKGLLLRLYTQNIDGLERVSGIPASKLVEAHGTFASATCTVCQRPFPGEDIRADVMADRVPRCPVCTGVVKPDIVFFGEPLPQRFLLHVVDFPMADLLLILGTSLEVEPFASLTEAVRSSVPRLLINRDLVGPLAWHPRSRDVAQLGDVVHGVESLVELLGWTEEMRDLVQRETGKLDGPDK
# ASSAY: Inhibition of human recombinant SIRT3 using Fluor de Lys-SIRT as substrate incubated for 60 mins prior to substrate addition measured after 45 mins by fluorimetric analysis
VALUE TYPE: IC50

IN: Give the measured IC50 of O=C(Nc1cnccc1Br)c1cccc(-c2ccc3ccccc3c2)c1 .
OUT: > 100 µM

###

# SUBJECT OF TEST: NAD-dependent protein deacetylase sirtuin-2 (Homo sapiens) (UniProt Q8IXJ6)
# Sequence (whole entry): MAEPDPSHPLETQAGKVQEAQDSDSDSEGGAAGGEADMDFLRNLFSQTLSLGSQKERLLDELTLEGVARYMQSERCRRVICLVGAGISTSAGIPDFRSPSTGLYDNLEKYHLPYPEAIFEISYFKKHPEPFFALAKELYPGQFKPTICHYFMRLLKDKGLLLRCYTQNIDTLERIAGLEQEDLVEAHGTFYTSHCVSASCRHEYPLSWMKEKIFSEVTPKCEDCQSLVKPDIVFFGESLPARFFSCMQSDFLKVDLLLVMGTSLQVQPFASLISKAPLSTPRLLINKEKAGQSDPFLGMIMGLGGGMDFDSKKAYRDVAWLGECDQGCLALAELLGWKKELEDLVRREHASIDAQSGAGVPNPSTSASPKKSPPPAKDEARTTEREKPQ
# ASSAY: Inhibition of GST-tagged human recombinant SIRT2 (34 to 356 residues) expressed in Escherichia coli BL21 at 10 uM using Fluor de Lys-SIRT as substrate incubated for 60 mins prior to substrate addition measured after 45 mins by fluorimetric analysis
VALUE TYPE: inhibition (%)
Please give a number only; it is taken to be in %.

Recorded results for 5 compounds are shown here.
# COMPOUND STRUCTURE STRING, REPORTED
data = [
    ("O=C(Nc1ccccc1[N+](=O)[O-])c1cccc(-c2ccc3ccccc3c2)c1", 30),
    ("O=C(Nc1cccc(-c2ccc3ccccc3c2)c1)c1ccccc1Br", 39),
    ("COc1ccc(C(=O)Nc2cccc(NC(=O)c3ccccc3Br)c2)cc1", 10),
    ("COc1ccccc1C(=O)Nc1cccc(NC(=O)c2ccccc2Br)c1", 10),
    ("COc1ccccc1NC(=O)c1cccc(-c2ccc3ccccc3c2)c1", 51),
]

From here, focus on the item given below.
IN: Give the measured inhibition of COc1ccccc1C(=O)Nc1cccc(NC(=O)c2cccc(Br)c2)c1 .
OUT: 11

###

# SUBJECT OF TEST: NAD-dependent protein deacetylase sirtuin-2 (Homo sapiens, UniProt Q8IXJ6)
# ASSAY: Inhibition of GST-tagged human recombinant SIRT2 (34 to 356 residues) expressed in Escherichia coli BL21 using Fluor de Lys-SIRT as substrate incubated for 60 mins prior to substrate addition measured after 45 mins by fluorimetric analysis
pIC50: −log10 of the molar value.
Param threshold (5) applies to pIC50; output y when value >= threshold, n when value < threshold.

Would you please look over these solved cases?
# COMPOUND STRUCTURE STRING, GROUP
rows = [
    ("O=C(Nc1cnccn1)c1cccc(-c2ccc3ccccc3c2)c1", "y"),
    ("O=C(Nc1ccccn1)c1cccc(-c2ccc3ccccc3c2)c1", "n"),
    ("O=C(Nc1cccnc1)c1cccc(-c2ccc3ccccc3c2)c1", "y"),
    ("O=C(Nc1ccncc1)c1cccc(-c2ccc3ccccc3c2)c1", "n"),
    ("O=C(Nc1cnccc1Br)c1cccc(-c2ccc3ccccc3c2)c1", "y"),
    ("O=C(Nc1cc[nH]n1)c1cccc(-c2ccc3ccccc3c2)c1", "n"),
    ("O=C(Nc1cccnn1)c1cccc(-c2ccc3ccccc3c2)c1", "y"),
    ("O=C(Nc1ccccc1Br)c1cccc(-c2ccc3ccccc3c2)c1", "y"),
    ("O=C(Nc1nc[nH]n1)c1cccc(-c2ccc3ccccc3c2)c1", "n"),
]

IN: Hi, just wondering whether O=C(Nc1ccnnc1)c1cccc(-c2ccc3ccccc3c2)c1 shows pIC50 of 5 or higher.
OUT: y

###

# SUBJECT OF TEST: NAD-dependent protein deacetylase sirtuin-2 (Homo sapiens) (UniProt Q8IXJ6)
# ASSAY: Inhibition of GST-tagged human recombinant SIRT2 (34 to 356 residues) expressed in Escherichia coli BL21 at 10 uM using Fluor de Lys-SIRT as substrate incubated for 60 mins prior to substrate addition measured after 45 mins by fluorimetric analysis
inhibition reference
# answer = value followed by unit

# COMPOUND STRUCTURE STRING, inhibition
data = [
    ("O=C(Nc1cccc(NC(=O)c2ccccc2Br)c1)c1cccc(Br)c1", "0%"),
    ("O=C(Nc1cccc(NC(=O)c2cc(C(F)(F)F)cc(C(F)(F)F)c2)c1)c1cccc(Br)c1", "3%"),
]

IN: Give the measured inhibition of O=C(Nc1cccc(NC(=O)c2ccccc2Br)c1)c1ccccc1 .
OUT: 8%

IN: Give the measured inhibition of O=C(Nc1ccccc1Br)c1cccc(-c2ccc3ccccc3c2)c1 .
OUT: 64%

IN: Give the measured inhibition of Nc1ccccc1NC(=O)c1cccc(-c2ccc3ccccc3c2)c1 .
OUT: 22%
